# collection of IC50 values tested on Voltage-gated inwardly rectifying potassium channel KCNH2 (Homo sapiens, UniProt Q12809)
# Sequence (Q12809 whole entry): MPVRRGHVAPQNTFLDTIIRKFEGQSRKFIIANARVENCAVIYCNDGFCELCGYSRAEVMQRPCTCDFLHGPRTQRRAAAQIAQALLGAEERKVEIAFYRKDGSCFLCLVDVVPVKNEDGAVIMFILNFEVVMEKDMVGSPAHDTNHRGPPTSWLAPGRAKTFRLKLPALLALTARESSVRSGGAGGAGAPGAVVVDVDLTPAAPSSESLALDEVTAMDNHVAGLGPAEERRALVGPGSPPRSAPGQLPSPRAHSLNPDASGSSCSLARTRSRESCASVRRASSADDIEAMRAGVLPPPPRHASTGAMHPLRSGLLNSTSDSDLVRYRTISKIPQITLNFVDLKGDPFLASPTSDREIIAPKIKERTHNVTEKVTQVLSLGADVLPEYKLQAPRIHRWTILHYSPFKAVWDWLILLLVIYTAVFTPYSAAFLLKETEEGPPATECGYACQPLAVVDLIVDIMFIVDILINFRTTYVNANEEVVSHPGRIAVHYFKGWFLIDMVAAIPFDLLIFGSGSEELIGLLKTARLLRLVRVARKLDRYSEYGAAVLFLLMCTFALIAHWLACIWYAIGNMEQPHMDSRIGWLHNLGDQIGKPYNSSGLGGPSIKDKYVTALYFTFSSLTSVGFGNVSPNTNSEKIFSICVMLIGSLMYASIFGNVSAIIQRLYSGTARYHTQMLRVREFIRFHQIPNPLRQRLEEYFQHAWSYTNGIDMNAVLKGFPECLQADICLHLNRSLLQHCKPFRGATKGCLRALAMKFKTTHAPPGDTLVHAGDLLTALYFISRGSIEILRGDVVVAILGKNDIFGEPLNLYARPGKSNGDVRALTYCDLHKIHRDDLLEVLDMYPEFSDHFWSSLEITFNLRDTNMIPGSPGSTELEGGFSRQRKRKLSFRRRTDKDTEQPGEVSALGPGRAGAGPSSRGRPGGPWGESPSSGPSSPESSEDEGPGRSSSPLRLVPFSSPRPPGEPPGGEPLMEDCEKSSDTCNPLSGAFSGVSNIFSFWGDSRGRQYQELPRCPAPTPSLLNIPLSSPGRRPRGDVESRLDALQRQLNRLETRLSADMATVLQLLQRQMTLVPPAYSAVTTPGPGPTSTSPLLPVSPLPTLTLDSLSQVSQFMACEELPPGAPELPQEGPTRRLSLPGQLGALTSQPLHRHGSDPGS
measure: IC50

Cc1ccc(-c2c(C)c(CNC3CCCC3)nn2-c2ncccc2Cl)cn1 :: 16 µM
Cc1ccc(-c2c(C)c(CNC3CCCC3F)nn2-c2ncccc2Cl)cn1 (centres undefined) :: 30 µM
Cc1ncc(-c2c(C)c(CN[C@H]3CC[C@@H](F)C3)nn2-c2ncccc2Cl)cc1F :: 41 µM
Cc1c(CNC2CCCC2)nn(-c2ncccc2Cl)c1-c1ccc(Cl)nc1 :: 2.7 µM

====

- study.target: Nociceptin receptor (Homo sapiens, UniProt P41146)
- Sequence (P41146 whole entry): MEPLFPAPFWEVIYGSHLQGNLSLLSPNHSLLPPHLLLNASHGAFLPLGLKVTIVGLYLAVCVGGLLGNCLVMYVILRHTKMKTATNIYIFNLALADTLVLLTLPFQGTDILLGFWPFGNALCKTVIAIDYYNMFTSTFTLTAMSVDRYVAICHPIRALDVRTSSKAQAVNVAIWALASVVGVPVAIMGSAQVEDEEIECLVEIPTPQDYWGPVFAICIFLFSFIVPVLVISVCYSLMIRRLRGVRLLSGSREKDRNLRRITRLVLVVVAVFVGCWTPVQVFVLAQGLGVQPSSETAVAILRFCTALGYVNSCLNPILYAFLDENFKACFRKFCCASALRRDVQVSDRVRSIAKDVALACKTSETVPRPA
- procedure.details: Displacement of [125I]Tyr14-NC/OFQ from human ORL1 receptor
pIC50: −log10 of the molar value.
Label scheme for pIC50: bin 0: < 7; bin 1: ≥ 7 and < 8; bin 2: ≥ 8

Cc1c(CN(C)C2CCCCC2)nn(-c2ccc(Cl)cc2Cl)c1-c1ccc(Cl)cc1 :: bin 0
Cc1ncc(-c2c(C)c(CN[C@H]3CC[C@@H](F)C3)nn2-c2ncccc2Cl)cc1F :: bin 2
Cc1c(CNC2CCCC2)nn(-c2ncccc2Cl)c1-c1ccc(C(F)(F)F)nc1 :: bin 0
Cc1c(CNC2CCCC2)nn(-c2ccc(Cl)cc2Cl)c1-c1ccccn1 :: bin 0
Cc1c(CN(C(C)C)C2CCCCC2)nn(-c2ccc(Cl)cc2Cl)c1-c1ccc(Cl)cc1 :: bin 0
Cc1ncc(-c2c(C)c(CNC3CCCC3)nn2-c2ncccc2Cl)cc1F :: bin 2
Cc1ccc(-c2c(C)c(CNC3CCCC3)nn2-c2ncccc2Cl)cn1 :: bin 2
Cc1ccc(-c2c(C)c(CN[C@H]3CC[C@@H](F)C3)nn2-c2ncccc2Cl)cn1 :: bin 2
Cc1c(CNC2CCCC2)nn(-c2ccc(Cl)cc2Cl)c1-c1ccncc1 :: bin 0
Cc1ccc(-c2c(C)c(CNC3CCCC3)nn2-c2ncccc2C)cn1 :: bin 1
Cc1c(CNC2CCCC2)nn(-c2ccc(Cl)cc2Cl)c1-c1ccc(Cl)cc1 :: bin 1
Cc1ccc(-c2c(C)c(CNC3CCCC3)nn2-c2ncccc2C(F)(F)F)cn1 :: bin 1
Cc1c(CNC(C)C)nn(-c2ccc(Cl)cc2Cl)c1-c1ccc(Cl)cc1 :: bin 0
Cc1c(CN2CCCCC2)nn(-c2ccc(Cl)cc2Cl)c1-c1ccc(Cl)cc1 :: bin 0
